Test: Oral bioavailability in Sprague-Dawley rat at 1 mg/kg
Format: ADME, organism-based
Conditions: in vivo

| compound | bioavailability / % |
| --- | --- |
| CNc1nc(Nc2cnn([C@H]3CCN(C4COC4)C[C@@H]3F)c2Cl)ncc1C(F)(F)F (relative stereo) | 90 |

###

Entries annotated with measured clearance
Experiment: Clearance in cynomolgus monkey at 1 mg/kg, po and 0.5 mg/kg, iv
Type: ADME, organism-based, Macaca fascicularis
Details: in vivo

| molecule | clearance |
| --- | --- |
| CNc1nc(Nc2cn(C(C)(C)C#N)nc2C)ncc1C(F)(F)F | 19.7 mL/min/kg |
| CNc1nc(Nc2cnn([C@H]3CCN(C4COC4)C[C@@H]3F)c2Cl)ncc1C(F)(F)F (relative stereo) | 7.8 mL/min/kg |
